- EXPERIMENTAL TARGET: HLA-C*03:03
- TEST DESCRIPTION: IEDB peptide-MHC binding, purified MHC/direct/fluorescence; filed as Kd, often an IC50 or EC50 that approximates it; bounds were set here for any values at or beyond the usual limits of such assays
- CONDITIONS USED: source organism: Cryptosporidium parvum Iowa II
VALUE TYPE: Kd
Number plus unit, in that order.

Input: Reported Kd for `WMYNIQPYL` : what is it?
Output: 83 nM

----------
- EXPERIMENTAL TARGET: HLA-B*40:01
- TEST DESCRIPTION: IEDB peptide-MHC binding, purified MHC/direct/fluorescence; filed as Kd, often an IC50 or EC50 that approximates it; bounds were set here for any values at or beyond the usual limits of such assays
- CONDITIONS USED: source organism: Mycobacterium tuberculosis str. Haarlem
VALUE TYPE: Kd

Input: If you can, please state the reported Kd value of `IMANRAQVL` .
Output: ≥ 20 µM

----------
- EXPERIMENTAL TARGET: HLA-B*15:01
- TEST DESCRIPTION: IEDB peptide-MHC binding, purified MHC/competitive/radioactivity; filed as Kd, often an IC50 or EC50 that approximates it; bounds were set here for any values at or beyond the usual limits of such assays
- CONDITIONS USED: source organism: Vaccinia virus WR
Labelling field: enter t if recorded Kd is less than 0.2 µM. Enter f if it equals or exceeds that cut-off.

MSIDHCSSF t
FQTVNFNNA f
KWKYENPCK f
MVHIYFVSL f
LVQYRILPM t
MMKTYIEFV t
NAHKLILSG f
LTFDYVVTF t

Moving on to the next sequence.
Input: Answer whether the sequence `LLWFLTGTF` has Kd strictly less than 0.2 µM
Output: t

----------
- EXPERIMENTAL TARGET: HLA-B*38:01
- TEST DESCRIPTION: IEDB peptide-MHC binding, purified MHC/direct/fluorescence; filed as Kd, often an IC50 or EC50 that approximates it; bounds were set here for any values at or beyond the usual limits of such assays
- CONDITIONS USED: source organism: Bacillus cereus H3081.97
pKd: −log10 of the molar value.
VALUE TYPE: pKd

Input: Returns the measured pKd for the input sequence. Input: `TVIRFWHAM`
Output: ≤ 4.70

----------
- EXPERIMENTAL TARGET: HLA-A*11:01
- TEST DESCRIPTION: IEDB peptide-MHC binding, purified MHC/competitive/radioactivity; filed as Kd, often an IC50 or EC50 that approximates it; bounds were set here for any values at or beyond the usual limits of such assays
- CONDITIONS USED: source organism: Dengue virus 4 Philippines/H241/1956
VALUE TYPE: pKd
Answers are plain numbers, as −log10 of the molar value.

Provide pKd values for the following items, in order.
1. VSSVNTTSK
2. IMQRGLFGK
3. AVSTANIFR

Output:
1. 5.86
2. 6.49
3. 7.04

----------
- EXPERIMENTAL TARGET: HLA-A*11:01
- TEST DESCRIPTION: IEDB peptide-MHC binding, purified MHC/competitive/radioactivity; filed as Kd, often an IC50 or EC50 that approximates it; bounds were set here for any values at or beyond the usual limits of such assays
- CONDITIONS USED: source organism: SARS coronavirus Tor2
pKd: −log10 of the molar value.
Output Condition met for pKd not less than 8; output Condition not met otherwise.

ALGGSIAVK Condition not met

Input: Say whether `WVFGSTMNNK` shows pKd of 8 or more.
Output: Condition not met

Input: What do we get for `ALKYLPIDK` ?
Output: Condition not met

----------
- EXPERIMENTAL TARGET: HLA-A*33:01
- TEST DESCRIPTION: IEDB peptide-MHC binding, purified MHC/competitive/radioactivity; filed as Kd, often an IC50 or EC50 that approximates it; bounds were set here for any values at or beyond the usual limits of such assays
- CONDITIONS USED: source organism: Vaccinia virus WR
Please respond with reported Kd for every item in the list.
Numbers only, in µM.

GIGTFLHYK 3.78
VTDLENRLK 13.1
ILKINSVKYY 11.2
NSISARALK 0.00653
LSKIPYLRNY 9.09
CAMPYNILDR 0.64
MLNRVQILMK 2.78
SINVTIPEQY 12.8

For each of the items listed, what is its Kd?
1. VMHINSPFK
2. LTTHCTKLR
3. SMFWDGMDY
4. SLNRQTVSR
5. NTTYDFLARK

Output:
1: 10.7; 2: 4.53; 3: 10.4; 4: 0.286; 5: 4.51

----------
- EXPERIMENTAL TARGET: HLA-B*44:02
- TEST DESCRIPTION: IEDB peptide-MHC binding, purified MHC/competitive/radioactivity; filed as Kd, often an IC50 or EC50 that approximates it; bounds were set here for any values at or beyond the usual limits of such assays
- CONDITIONS USED: source organism: Mammarenavirus machupoense
VALUE TYPE: pKd
One number for each entry, as −log10 of the molar value.

Some solved entries appear below for comparison.
RECYAQRFYL 6.28
CEEGKLCYLT 4.88

Continue with the sequence presented below.
Input: Recorded pKd for `KEKAPDVGVL` , please?
Output: 5.62

----------
- EXPERIMENTAL TARGET: HLA-A*11:01
- TEST DESCRIPTION: IEDB peptide-MHC binding, purified MHC/direct/fluorescence; filed as Kd, often an IC50 or EC50 that approximates it; bounds were set here for any values at or beyond the usual limits of such assays
- CONDITIONS USED: source organism: Cryptosporidium parvum
VALUE TYPE: Kd

Input: Reported Kd for `DFIGKTIGF` : what is it?
Output: ≥ 20 µM

----------
- EXPERIMENTAL TARGET: HLA-B*44:02
- TEST DESCRIPTION: IEDB peptide-MHC binding, purified MHC/direct/fluorescence; filed as Kd, often an IC50 or EC50 that approximates it; bounds were set here for any values at or beyond the usual limits of such assays
- CONDITIONS USED: source organism: Escherichia coli O157:H7
pKd: −log10 of the molar value.
VALUE TYPE: pKd

// below: answered sequences
RFDEAIINY ≤ 4.70
AQRPAKYSY ≤ 4.70

Consider the additional sequence presented here.
Input: # lookup: pKd of `SMYQLMITI`
Output: ≤ 4.70

----------
- EXPERIMENTAL TARGET: HLA-B*27:05
- TEST DESCRIPTION: IEDB peptide-MHC binding, purified MHC/competitive/fluorescence; filed as Kd, often an IC50 or EC50 that approximates it; bounds were set here for any values at or beyond the usual limits of such assays
- CONDITIONS USED: source organism: Pleistophora sp. LS
VALUE TYPE: Kd

Input: Consider the sequence shown here: `VELQIGWTV` What is its recorded Kd?
Output: ≥ 20 µM

----------
- EXPERIMENTAL TARGET: HLA-B*27:03
- TEST DESCRIPTION: IEDB peptide-MHC binding, purified MHC/direct/fluorescence; filed as Kd, often an IC50 or EC50 that approximates it; bounds were set here for any values at or beyond the usual limits of such assays
- CONDITIONS USED: source organism: Vibrio parahaemolyticus AQ3810
pKd: −log10 of the molar value.
VALUE TYPE: pKd

Input: Lookup: pKd / HLA-B*27:03 / `RLDKPLWLH`
Output: ≤ 4.70

----------
- EXPERIMENTAL TARGET: HLA-A*26:01
- TEST DESCRIPTION: IEDB peptide-MHC binding, purified MHC/competitive/fluorescence; filed as Kd, often an IC50 or EC50 that approximates it; bounds were set here for any values at or beyond the usual limits of such assays
- CONDITIONS USED: source organism: Orthohantavirus sinnombreense
pKd: −log10 of the molar value.
VALUE TYPE: pKd

Input: Quick one: pKd of `YTFTSLFSL` ?
Output: ≤ 4.70

----------
- EXPERIMENTAL TARGET: HLA-A*32:15
- TEST DESCRIPTION: IEDB peptide-MHC binding, purified MHC/competitive/fluorescence; filed as Kd, often an IC50 or EC50 that approximates it; bounds were set here for any values at or beyond the usual limits of such assays
- CONDITIONS USED: source organism: Toxoplasma gondii
VALUE TYPE: Kd (nM)
One number for each entry, in nM.

Input: Find the recorded Kd belonging to `MTMLIKAFK` and report it.
Output: 194

----------
- EXPERIMENTAL TARGET: HLA-B*15:01
- TEST DESCRIPTION: IEDB peptide-MHC binding, purified MHC/direct/fluorescence; filed as Kd, often an IC50 or EC50 that approximates it; bounds were set here for any values at or beyond the usual limits of such assays
- CONDITIONS USED: source organism: Corynebacterium glutamicum
pKd: −log10 of the molar value.
VALUE TYPE: pKd

Input: Name the recorded pKd for `FLPGQYMNI` .
Output: ≤ 4.70

These data points were gathered from the Immune Epitope Database (IEDB).
